Tested on: SK-OV-3 ovarian
Assay: NCI tumour cell line growth inhibition, 48 h; in the data active means GI50 below about 0.43 µM; inactive means the rest
Outcome (select one): 1 = active, -1 = inactive

Examples with answers:
>>> label("CCCCCSc1ccc2nc(NC(=O)OCC)sc2c1")
-1
>>> label("COc1cc(-n2cc(-c3ccc(Cl)cc3)n(-c3ccccc3)c2=O)cc(OC)c1OC")
-1
>>> label("O=C(Nc1ccc(I)cc1F)c1cc(Br)ccc1O")
-1
>>> label("CCOC(=O)c1ccc(N2NC(=O)/C(=C/c3ccc([N+](=O)[O-])o3)C2=O)cc1")
-1
>>> label("O=C(COc1ccccc1)NNc1ccccc1")
-1

Could you now consider this next molecule?
Ask | Can you look up the reported call for CCCN(CCC)c1ccc(/C=N/NC(=O)c2cccnc2)c(C)c1 for me?
Reply | -1

Ref: PubChem BioAssay (NCI)
